Target: T1, human PD-L1-ECD/His (human, UniProt Q9NZQ7 19-238)
T1 construct: Expressed in 293-F cells; also called PD-L1/His; human PD-L1/His
T1 sequence (Q9NZQ7 19-238): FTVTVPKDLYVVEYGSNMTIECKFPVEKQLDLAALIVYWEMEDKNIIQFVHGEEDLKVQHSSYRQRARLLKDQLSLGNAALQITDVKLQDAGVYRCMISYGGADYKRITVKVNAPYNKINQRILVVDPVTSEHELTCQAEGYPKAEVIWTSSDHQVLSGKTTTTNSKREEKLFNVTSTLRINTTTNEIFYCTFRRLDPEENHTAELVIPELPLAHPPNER
Assay: SPR (BIAcore T-200), human PD-L1/His on CM5 chip, Fab injected
attributeMeasured: kon (M⁻¹ s⁻¹)

* hu333-3H2 Fab (Fab, V domains shown, Human Fab format; constant parts not restated) VH: EVQLVESGGGLVQPGGSLRLSCAVSGFSLTSYGVHWVRQAPGKGLEWVAVIWAGGSTNYADSVKGRFTISKDTSKNTVYLQMNSLRAEDTAVYYCAKPYGNSAMDYWGQGTLVTVSS VL: DIQMTQSPSSLSASVGDRVTITCKASQDVGIVVAWYQQKPGKAPKLLIYWASIRHTGVPSRFSGSGSGTEFTLTISSLQPDDFATYYCQQYSNYPLYTFGQGTKVEIK | 1.32e+06
